tested on: 354836-022-R-J1-PDC multicell spheroid viability; experiment: Anticancer human tumor 354836-022-R-J1-PDC patient-derived head and neck squamous cell carcinoma cell line growth inhibition [PI3K]; settings: second compound 0.316 µM; first compound 3.16 µM; hits give low values;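 also: spheroids exposed to agents for seven days before the viability read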
Threshold-based label: viability, T/C under 80% gives Y, viability, T/C not under 80% gives N.

compound: Cn1nccc1Nc1nccc(-c2ccn(C(CO)c3ccc(Cl)c(F)c3)c(=O)c2)n1 (stereo not drawn) + COc1c(OCCCN2CCOCC2)ccc2c3n(c(=NC(=O)c4cnc(N)nc4)nc12)CCN3
study_system: 354836-022-R-J1-PDC multicell spheroid viability;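 also: spheroids exposed to agents for seven days before the viability read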
group: Y

compound: C#Cc1c(F)ccc2cc(O)cc(-c3ncc4c(N5CC6CCC(C5)N6)nc(OCC56CCCN5CC(F)C6)nc4c3F)c12 (stereo not drawn) + CC(Nc1ccc2c(c1)OCCn1cc(N3C(=O)OCC3C(F)F)nc1-2)C(N)=O
study_system: 354836-022-R-J1-PDC multicell spheroid viability;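 also: spheroids exposed to agents for seven days before the viability read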
group: N

compound: Cn1ncc(Cl)c1-c1cc(C(=O)NC(CN)Cc2cccc(F)c2)sc1Cl (stereo not drawn) + CC(Nc1ncnc2nc[nH]c12)c1cc2cccc(Cl)c2c(=O)n1-c1ccccc1
study_system: 354836-022-R-J1-PDC multicell spheroid viability;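 also: spheroids exposed to agents for seven days before the viability read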
group: Y

compound: CC1(C)CCC(CN2CCN(c3ccc(C(=O)NS(=O)(=O)c4ccc(NCC5CCOCC5)c([N+](=O)[O-])c4)c(Oc4cnc5[nH]ccc5c4)c3)CC2)=C(c2ccc(Cl)cc2)C1 + CC(Nc1ccc2c(c1)OCCn1cc(N3C(=O)OCC3C(F)F)nc1-2)C(N)=O
study_system: 354836-022-R-J1-PDC multicell spheroid viability;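 also: spheroids exposed to agents for seven days before the viability read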
group: Y

compound: Cn1ncc(Cl)c1-c1cc(C(=O)NC(CN)Cc2cccc(F)c2)sc1Cl (stereo not drawn) + Cc1nc(NC(=O)N2CCCC2C(N)=O)sc1-c1ccnc(C(C)(C)C(F)(F)F)c1
study_system: 354836-022-R-J1-PDC multicell spheroid viability;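 also: spheroids exposed to agents for seven days before the viability read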
group: Y

compound: C#Cc1c(F)ccc2cc(O)cc(-c3ncc4c(N5CC6CCC(C5)N6)nc(OCC56CCCN5CC(F)C6)nc4c3F)c12 (stereo not drawn) + Cc1nc(NC(=O)N2CCCC2C(N)=O)sc1-c1ccnc(C(C)(C)C(F)(F)F)c1
study_system: 354836-022-R-J1-PDC multicell spheroid viability;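 also: spheroids exposed to agents for seven days before the viability read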
group: N

compound: C#Cc1c(F)ccc2cc(O)cc(-c3ncc4c(N5CC6CCC(C5)N6)nc(OCC56CCCN5CC(F)C6)nc4c3F)c12 (stereo not drawn) + COc1c(OCCCN2CCOCC2)ccc2c3n(c(=NC(=O)c4cnc(N)nc4)nc12)CCN3
study_system: 354836-022-R-J1-PDC multicell spheroid viability;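 also: spheroids exposed to agents for seven days before the viability read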
group: Y

compound: CC(Cn1ccc(-c2ccc(C#N)c(Cl)c2)n1)NC(=O)c1cc(C(C)O)[nH]n1 (stereo not drawn) + CC(Nc1ccc2c(c1)OCCn1cc(N3C(=O)OCC3C(F)F)nc1-2)C(N)=O
study_system: 354836-022-R-J1-PDC multicell spheroid viability;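 also: spheroids exposed to agents for seven days before the viability read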
group: Y

compound: CC1(C)CCC(Nc2ncc(C(F)(F)F)c(-c3c[nH]c4c(P(C)(C)=O)c(C#N)ccc34)n2)CN1 (stereo not drawn) + CC(Nc1ccc2c(c1)OCCn1cc(N3C(=O)OCC3C(F)F)nc1-2)C(N)=O
study_system: 354836-022-R-J1-PDC multicell spheroid viability;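 also: spheroids exposed to agents for seven days before the viability read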
group: Y

compound: CCCS(=O)(=O)Nc1ccc(F)c(C(=O)c2c[nH]c3ncc(-c4ccc(Cl)cc4)cc23)c1F + Cc1nc(NC(=O)N2CCCC2C(N)=O)sc1-c1ccnc(C(C)(C)C(F)(F)F)c1
study_system: 354836-022-R-J1-PDC multicell spheroid viability;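 also: spheroids exposed to agents for seven days before the viability read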
group: Y

compound: CC1(C)CCC(Nc2ncc(C(F)(F)F)c(-c3c[nH]c4c(P(C)(C)=O)c(C#N)ccc34)n2)CN1 (stereo not drawn) + CC(Nc1ncnc2nc[nH]c12)c1cc2cccc(Cl)c2c(=O)n1-c1ccccc1
study_system: 354836-022-R-J1-PDC multicell spheroid viability;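 also: spheroids exposed to agents for seven days before the viability read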
group: Y

compound: C=CC(=O)N1CCN(c2nc(=O)n(-c3c(C)ccnc3C(C)C)c3nc(-c4c(O)cccc4F)c(F)cc23)C(C)C1 (stereo not drawn) + CC(Nc1ncnc2nc[nH]c12)c1cc2cccc(Cl)c2c(=O)n1-c1ccccc1
study_system: 354836-022-R-J1-PDC multicell spheroid viability;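 also: spheroids exposed to agents for seven days before the viability read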
group: N

compound: C#Cc1c(F)ccc2cc(O)cc(-c3ncc4c(N5CC6CCC(C5)N6)nc(OCC56CCCN5CC(F)C6)nc4c3F)c12 (stereo not drawn) + CC(Nc1ncnc2nc[nH]c12)c1cc2cccc(Cl)c2c(=O)n1-c1ccccc1
study_system: 354836-022-R-J1-PDC multicell spheroid viability;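 also: spheroids exposed to agents for seven days before the viability read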
group: N
